Biological target: Adenosine receptor A2b (Homo sapiens)
Assay: Displacement of [3H]DPCPX from recombinant human adenosine A2B receptor expressed in HEK293 cells at 0.01 uM
measure-name: inhibition (%)
One number for each entry, in %.

Answered cases to consult:
{"molecule": "Cn1c(=O)c2[nH]c(-c3ccc(OCC(=O)Nc4nncs4)cc3)cc2n(C)c1=O", "measure-name": "inhibition", "result-number": 36}
{"molecule": "CCCn1c(=O)c2[nH]c(-c3ccc(OCC(=O)n4ccc(N)n4)cc3)cc2n(CCC)c1=O", "measure-name": "inhibition", "result-number": 30}
{"molecule": "CCCn1c(=O)c2[nH]c(-c3ccc(OCC(=O)OCC)cc3)cc2n(CCC)c1=O", "measure-name": "inhibition", "result-number": 9}
{"molecule": "CCCn1c(=O)c2[nH]c(-c3ccc(OCC(=O)NCc4ccc(Cl)cc4)cc3)cc2n(C)c1=O", "measure-name": "inhibition", "result-number": 33}
{"molecule": "CCCn1c(=O)c2[nH]c(-c3ccc(OCC(=O)Nc4ccc(C)cn4)cc3)cc2n(CCC)c1=O", "measure-name": "inhibition", "result-number": 40}
{"molecule": "CCCn1c(=O)c2[nH]c(-c3ccc(OCC(=O)Nc4ccc(-c5ccccc5)cc4)cc3)cc2n(CCC)c1=O", "measure-name": "inhibition", "result-number": 40}
{"molecule": "CCCn1c(=O)c2[nH]c(-c3ccc(OCC(=O)Nc4ncccc4O)cc3)cc2n(C)c1=O", "measure-name": "inhibition", "result-number": 31}
{"molecule": "CCCn1c(=O)c2[nH]c(-c3ccc(OC(C)C(=O)NCc4ccc(Cl)cc4)cc3)cc2n(CCC)c1=O (stereo not drawn)", "measure-name": "inhibition", "result-number": 55}
{"molecule": "CCCn1c(=O)c2[nH]c(-c3ccc(OCC(=O)Nc4ccccc4)cc3OC)cc2n(CCC)c1=O", "measure-name": "inhibition", "result-number": 3}
{"molecule": "CCCn1c(=O)c2[nH]c(-c3ccc(OCC(=O)Nc4ccc(Cl)cc4)cc3)cc2n(CCC)c1=O", "measure-name": "inhibition", "result-number": 58}

# per-item lookup of inhibition; items listed below
1. COc1cccc(CNC(=O)COc2ccc(-c3cc4c([nH]3)c(=O)n(C)c(=O)n4C)cc2)c1
2. CCCn1c(=O)c2[nH]c(-c3ccc(OCC(=O)Nc4ccc(OC)nc4)cc3)cc2n(CCC)c1=O
3. CCCn1c(=O)c2[nH]c(-c3ccc(OCC(=O)NCc4ccc(F)cc4)cc3)c(Cl)c2n(CCC)c1=O

Result:
1: 15; 2: 41; 3: 8

Return reported inhibition values for all items listed beneath this line.
1. O=C(COc1ccc(-c2cc3c([nH]2)c(=O)n(CC2CC2)c(=O)n3CC2CC2)cc1)Nc1ccc(Br)cc1
2. CCCn1c(=O)c2[nH]c(-c3ccc(OC(C)(C)C(=O)O)cc3)cc2n(C)c1=O
3. CCCn1c(=O)c2[nH]c(-c3ccc(OC(C)(C)C(=O)Nc4ccc(F)cc4)cc3)cc2n(CCC)c1=O
4. CCCn1c(=O)c2[nH]c(-c3ccc(OCC(=O)Nc4ccccn4)cc3)cc2n(CCC)c1=O
5. CCCn1c(=O)c2[nH]c(-c3ccc(OC(C)C(=O)Nc4ccc(F)cc4)cc3)cc2n(CCC)c1=O (stereo not drawn)

Result:
1: 43; 2: 8; 3: 50; 4: 33; 5: 62

====

Exercise: for every item that follows, state its recorded inhibition.
Target: UniProt:P29275
Sequence (whole entry): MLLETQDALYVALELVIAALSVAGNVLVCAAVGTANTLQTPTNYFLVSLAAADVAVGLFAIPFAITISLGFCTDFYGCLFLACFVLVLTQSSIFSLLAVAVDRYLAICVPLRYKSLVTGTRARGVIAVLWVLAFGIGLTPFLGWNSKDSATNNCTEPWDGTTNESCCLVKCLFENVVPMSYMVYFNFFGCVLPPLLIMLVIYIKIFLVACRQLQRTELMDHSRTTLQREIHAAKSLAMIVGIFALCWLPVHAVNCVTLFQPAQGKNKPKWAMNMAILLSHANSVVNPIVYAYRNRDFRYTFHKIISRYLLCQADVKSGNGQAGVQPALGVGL
Assay: Displacement of [3H]DPCPX from recombinant human adenosine A2B receptor expressed in HEK293 cells at 0.1 uM
Assay type: cell-based
Dear colleague, please send the value followed by its unit.

Examples from the recorded data:
{"compound": "CCCn1c(=O)c2[nH]c(-c3ccc(OCC(=O)NCc4ccc(Cl)cc4)cc3)cc2n(C)c1=O", "target-desc": "UniProt:P29275", "inhibition": "76%"}
{"compound": "O=C(O)COc1ccc(-c2cc3c([nH]2)c(=O)n(CC2CC2)c(=O)n3CC2CC2)cc1", "target-desc": "UniProt:P29275", "inhibition": "69%"}
{"compound": "Cn1c(=O)c2[nH]c(-c3ccc(OCC(=O)NC4CCc5ccccc54)cc3)cc2n(C)c1=O (stereo not given)", "target-desc": "UniProt:P29275", "inhibition": "74%"}
{"compound": "CCCn1c(=O)c2[nH]c(-c3ccc(OCC(=O)Nc4ccc(F)cc4)cc3)cc2n(C)c1=O", "target-desc": "UniProt:P29275", "inhibition": "94%"}

Record inhibition for all entries; do not skip any.
1. CCCn1c(=O)c2[nH]c(-c3ccc(OCC(=O)NC(C(=O)OC)c4ccccc4)cc3)cc2n(CCC)c1=O (stereo not given)
2. CN(Cc1ccccc1)C(=O)COc1ccc(-c2cc3c([nH]2)c(=O)n(C)c(=O)n3C)cc1
3. CCCn1c(=O)c2[nH]c(-c3ccc(OC(CC)C(=O)Nc4ccc(Br)cc4)cc3)cc2n(CCC)c1=O (stereo not given)
4. CCCn1c(=O)c2[nH]c(-c3ccc(OCC(=O)Nc4ccc(OC)cc4)cc3)cc2n(CCC)c1=O
5. CCCn1c(=O)c2[nH]c(-c3ccc(OCC(=O)Nc4ccc(OCc5ccccc5)cc4)cc3)cc2n(CCC)c1=O

Result:
1: 58%; 2: 67%; 3: 94%; 4: 80%; 5: 76%

# batch: return inhibition for each of the 5 compounds below
1. CN(C(=O)COc1ccc(-c2cc3c([nH]2)c(=O)n(C)c(=O)n3C)cc1)c1ccccc1
2. Cn1c(=O)c2[nH]c(-c3ccc(OCC(=O)Nc4ccc(CCN)cc4)cc3)cc2n(C)c1=O
3. CCCn1c(=O)c2[nH]c(-c3ccc(OCC(=O)Nc4cc(C)cc(C)n4)cc3)cc2n(CCC)c1=O
4. CC(C)Cn1c(=O)c2[nH]c(-c3ccc(OCC(=O)O)cc3)cc2n(C)c1=O
5. Cn1c(=O)c2[nH]c(-c3ccc(OCC(=O)NCc4ccc(F)cc4)cc3)cc2n(C)c1=O

Result:
["61%", "34%", "53%", "28%", "95%"]

====

Target: Adenosine receptor A2b (Homo sapiens)
Sequence (whole entry): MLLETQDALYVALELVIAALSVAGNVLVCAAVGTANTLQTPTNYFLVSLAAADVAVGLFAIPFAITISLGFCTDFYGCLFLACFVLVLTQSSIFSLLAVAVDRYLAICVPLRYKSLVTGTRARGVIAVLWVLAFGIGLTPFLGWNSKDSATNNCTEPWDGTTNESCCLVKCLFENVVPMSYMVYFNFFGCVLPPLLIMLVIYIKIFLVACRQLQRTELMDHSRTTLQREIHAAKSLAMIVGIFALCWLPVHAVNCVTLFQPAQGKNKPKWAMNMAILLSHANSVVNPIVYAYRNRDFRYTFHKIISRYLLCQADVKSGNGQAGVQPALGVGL
Experiment: Displacement of [3H]DPCPX from recombinant human adenosine A2B receptor expressed in HEK293 cells at 0.1 uM
Format: cell-based
Assign a class from recorded inhibition; defined classes: low-valued: < 40%; mid-valued: ≥ 40% and < 80%; high-valued: ≥ 80%

Please review the entries below; each comes with its answer.
{"molecule": "Cn1c(=O)c2[nH]c(-c3cccc(OCC(=O)O)c3)cc2n(C)c1=O", "label-class": "low-valued"}
{"molecule": "CCCn1c(=O)c2[nH]c(-c3ccc(OC(C)C(=O)O)cc3)cc2n(CCC)c1=O (stereo not given)", "label-class": "mid-valued"}
{"molecule": "CCCn1c(=O)c2[nH]c(-c3ccc(OCC(=O)Nc4ccccc4)cc3)cc2n(CCC)c1=O", "label-class": "high-valued"}

Request: The entry to classify is CCN(Cc1ccccc1)C(=O)COc1ccc(-c2cc3c([nH]2)c(=O)n(C)c(=O)n3C)cc1 ; which class holds it?
Result: mid-valued

Request: Category lookup for the molecule CCCn1c(=O)c2[nH]c(-c3ccc(OC(C)(C)C(=O)O)cc3)cc2n(CCC)c1=O
Result: low-valued

Request: Band assignment needed for CCCn1c(=O)c2[nH]c(-c3ccc(N(C=O)CC(=O)Nc4ccc(Br)cc4)cc3)cc2n(CCC)c1=O please.
Result: high-valued

Request: Sort into band: CCCn1c(=O)c2[nH]c(-c3ccc(OCC(=O)Nc4ccc(F)cc4)cc3)c(Cl)c2n(CCC)c1=O
Result: mid-valued

Request: Input COc1cc(-c2cc3c([nH]2)c(=O)n(C)c(=O)n3C)ccc1OCC(=O)Nc1ccc(F)cc1 ; output its category
Result: mid-valued

FYI, the data here is from ChEMBL document CHEMBL1148617.
